Where these numbers come from: the supplement of paper PMC10567573

Items are presented alongside their recorded protein stability index.
B1: TRAF3IP2 (parent)
chain: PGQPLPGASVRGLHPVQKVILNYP

variants of: B1; assay: protein stability index of a GFP-peptide fusion (GPS, HEK-293T) (PSI 1-6); higher = more stable; details: c terminus: a fixed tail appended;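 further: lentivirally expressed fusions sorted by FACS into six bins by GFP to DsRed ratio, PSI derived from sequencing read proportions per bin multiplied by bin number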

item_sequence	protein stability index
PGQPLPGASVRGLHPVQKVHLNYP [I20H]	2.95
PGQPLPGAWVRGLHPVQKVILNYP [S9W]	2.97
PGQPLPGASVRGLHPVQKSILNYP [V19S]	3.09
PGQPLPGADVRGLHPVQKVILNYP [S9D]	3.08
PGQPLPGASVRGLHPVQKYILNYP [V19Y]	2.91
PMQPLPGASVRGLHPVQKVILNYP [G2M]	2.44
PGQPLPGASVRGLHPVQKVTLNYP [I20T]	3.03
PGQILPGASVRGLHPVQKVILNYP [P4I]	2.41
PSQPLPGASVRGLHPVQKVILNYP [G2S]	2.81
PGQPEPGASVRGLHPVQKVILNYP [L5E]	3.15
PGQPLPGASVRGLHPVQKVILMYP [N22M]	2.3
PGQPTPGASVRGLHPVQKVILNYP [L5T]	3.88
PGQPLPGASVRGLKPVQKVILNYP [H14K]	3.51
PGQPLPGDSVRGLHPVQKVILNYP [A8D]	3.19
PGQPLPGASVRGLHPVCKVILNYP [Q17C]	2.52
PGQPLPGASRRGLHPVQKVILNYP [V10R]	2.57
PGQPLPGASVRGLHDVQKVILNYP [P15D]	3.53
PGQPLPGQSVRGLHPVQKVILNYP [A8Q]	2.59
PGQPLPGASVRGLHPVQKVILNYW [P24W]	2.72
PGQPLPGASVRGLHPVQKVILNVP [Y23V]	3.26
PGQPLPGASVRGLHPVQKFILNYP [V19F]	2.45
PGQSLPGASVRGLHPVQKVILNYP [P4S]	2.6
PGQPLRGASVRGLHPVQKVILNYP [P6R]	3.63
PGQFLPGASVRGLHPVQKVILNYP [P4F]	2.92
PGQPLPGASVRGLHPHQKVILNYP [V16H]	3.03
PNQPLPGASVRGLHPVQKVILNYP [G2N]	2.65
PGQPFPGASVRGLHPVQKVILNYP [L5F]	2.29
PGQELPGASVRGLHPVQKVILNYP [P4E]	3.52
PGQPLPGASVRGLHPVQKVPLNYP [I20P]	3.36
PGQPLPGASVRGLHPVHKVILNYP [Q17H]	2.9
PGQPLWGASVRGLHPVQKVILNYP [P6W]	2.53
PGQPLPGASVRGLHPVQKVILNYC [P24C]	2.69
PGAPLPGASVRGLHPVQKVILNYP [Q3A]	3.28
PGQPLPGASVRGLHPVQKKILNYP [V19K]	3.32
